Known Ki of a selection of compounds
Molecular target: UniProtKB P10415
Sequence (P10415 whole entry): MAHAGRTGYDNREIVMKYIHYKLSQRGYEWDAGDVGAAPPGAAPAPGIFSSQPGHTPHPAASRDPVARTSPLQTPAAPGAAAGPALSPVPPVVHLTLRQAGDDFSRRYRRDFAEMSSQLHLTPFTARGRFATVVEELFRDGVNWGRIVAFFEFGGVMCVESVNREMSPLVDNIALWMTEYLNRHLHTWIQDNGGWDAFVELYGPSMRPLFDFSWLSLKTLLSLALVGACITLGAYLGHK
Provide the measurement as a number trailed by its unit.

See these solved cases before continuing.
>  <chemical.smiles>
CC(C)Cc1ccc(Oc2ccc3c4c(cccc24)C2=NC(=O)C(C#N)=C23)cc1

>  <Ki>
140 nM

$$$$
>  <chemical.smiles>
CC(C)Cc1ccc(Oc2ccc3c4c(cccc24)C2=C(C#N)C(=O)N=C23)cc1

>  <Ki>
210 nM

$$$$
>  <chemical.smiles>
CC(C)Cc1ccc(Sc2ccc3c4c(cccc24)C2=NC(=O)C(C#N)=C23)cc1

>  <Ki>
120 nM

$$$$

In the following, a different compound is considered.
Item "CC(C)c1ccc(Oc2ccc3c4c(cccc24)C2=NC(=O)C(C#N)=C23)cc1" ; assay system UniProtKB P10415; Ki reported as 20 nM

Value source: patent US8614333B2
